Source listed as paper PMC11945486.

Assignment: determine reported pEC50 for the given compounds.
- Target System: human TAS1R2-WT/TAS1R3-R813K (Homo sapiens, UniProt Q7RTX0+Q8TE23, R813K)
- Construct: expressed in transfected cells; host or cells: HEK293T stably expressing Gα16gust44
- Sequence (Q8TE23 20-839): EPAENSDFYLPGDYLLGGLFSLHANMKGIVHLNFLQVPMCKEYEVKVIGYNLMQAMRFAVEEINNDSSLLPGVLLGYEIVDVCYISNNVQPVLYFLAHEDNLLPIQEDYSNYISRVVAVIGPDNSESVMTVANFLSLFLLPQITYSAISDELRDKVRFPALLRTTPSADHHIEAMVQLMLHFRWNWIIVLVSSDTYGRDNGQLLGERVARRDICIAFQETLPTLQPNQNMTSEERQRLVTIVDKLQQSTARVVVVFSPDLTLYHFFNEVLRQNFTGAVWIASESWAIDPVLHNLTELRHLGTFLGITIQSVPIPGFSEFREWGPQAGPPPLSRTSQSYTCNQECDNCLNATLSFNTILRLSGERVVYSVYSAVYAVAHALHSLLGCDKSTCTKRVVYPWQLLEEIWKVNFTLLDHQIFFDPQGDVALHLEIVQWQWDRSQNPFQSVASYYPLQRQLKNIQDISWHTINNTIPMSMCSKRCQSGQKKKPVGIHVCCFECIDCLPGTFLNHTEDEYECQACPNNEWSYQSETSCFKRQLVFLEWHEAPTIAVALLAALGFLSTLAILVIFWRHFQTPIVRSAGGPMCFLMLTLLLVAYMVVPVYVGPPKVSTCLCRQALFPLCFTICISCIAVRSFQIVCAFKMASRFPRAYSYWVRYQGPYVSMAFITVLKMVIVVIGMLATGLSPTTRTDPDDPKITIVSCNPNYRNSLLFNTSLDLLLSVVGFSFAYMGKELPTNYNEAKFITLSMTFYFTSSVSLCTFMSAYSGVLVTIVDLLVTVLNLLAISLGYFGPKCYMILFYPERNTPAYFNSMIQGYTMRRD
- Sequence (Q7RTX0 21-852 R813K): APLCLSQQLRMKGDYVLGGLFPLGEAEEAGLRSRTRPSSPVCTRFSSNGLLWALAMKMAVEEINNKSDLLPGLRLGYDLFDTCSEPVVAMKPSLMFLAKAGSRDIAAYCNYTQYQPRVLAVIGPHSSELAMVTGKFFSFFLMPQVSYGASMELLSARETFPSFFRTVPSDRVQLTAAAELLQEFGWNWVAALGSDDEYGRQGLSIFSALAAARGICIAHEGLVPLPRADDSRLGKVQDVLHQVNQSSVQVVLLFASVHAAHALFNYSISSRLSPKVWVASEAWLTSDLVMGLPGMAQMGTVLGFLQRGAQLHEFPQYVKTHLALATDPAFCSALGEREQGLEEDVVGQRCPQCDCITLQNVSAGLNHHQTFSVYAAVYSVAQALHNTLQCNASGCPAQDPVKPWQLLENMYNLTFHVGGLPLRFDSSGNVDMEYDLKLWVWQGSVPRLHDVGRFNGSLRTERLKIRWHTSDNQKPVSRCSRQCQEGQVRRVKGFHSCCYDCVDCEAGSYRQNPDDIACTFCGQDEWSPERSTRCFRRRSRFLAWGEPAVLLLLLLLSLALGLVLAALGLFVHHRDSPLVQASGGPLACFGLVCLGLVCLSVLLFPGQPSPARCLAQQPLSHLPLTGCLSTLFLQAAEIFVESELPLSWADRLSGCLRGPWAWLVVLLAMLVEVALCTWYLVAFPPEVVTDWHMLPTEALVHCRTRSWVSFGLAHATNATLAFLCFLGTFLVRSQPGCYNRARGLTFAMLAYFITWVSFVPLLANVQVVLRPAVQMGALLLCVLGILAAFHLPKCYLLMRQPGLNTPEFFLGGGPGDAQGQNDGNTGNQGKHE
- Test Details: Calcium mobilisation assay, TAS1R2-WT with TAS1R3 variant R813K
- Assay type: cell-based
- Condition Description: read-out: EC50
Give only the number. pEC50 is defined as minus log10 of concentration in molar units.

Value wanted: pEC50 (human TAS1R2-WT/TAS1R3-R813K (Homo sapiens, UniProt Q7RTX0+Q8TE23, R813K)) of entry COc1ccc(CCC(=O)c2c(O)cc(O[C@@H]3O[C@H](CO)[C@@H](O)[C@H](O)[C@H]3O[C@@H]3O[C@@H](C)[C@H](O)[C@@H](O)[C@H]3O)cc2O)cc1O [NHDC, neohesperidin dihydrochalcone]
4.47

Given the entry C=C(C)[C@@H]1CC=C(/C=N/O)CC1 [Perillartine, perillartine] , what pEC50 was observed with human TAS1R2-WT/TAS1R3-R813K (Homo sapiens, UniProt Q7RTX0+Q8TE23, R813K)?
4.98

What reported pEC50 corresponds to C=C1C[C@@]23CC[C@H]4[C@@](C)(CCC[C@@]4(C)C(=O)O[C@@H]4O[C@H](CO)[C@@H](O)[C@H](O[C@@H]5O[C@H](CO)[C@@H](O)[C@H](O)[C@H]5O)[C@H]4O[C@@H]4O[C@H](CO)[C@@H](O)[C@H](O)[C@H]4O)[C@@H]2CC[C@]1(O[C@@H]1O[C@H](CO)[C@@H](O)[C@H](O[C@@H]2O[C@H](CO)[C@@H](O)[C@H](O)[C@H]2O)[C@H]1O[C@@H]1O[C@H](CO)[C@@H](O)[C@H](O)[C@H]1O)C3 [Rebaudioside M, rebaudioside M] on human TAS1R2-WT/TAS1R3-R813K (Homo sapiens, UniProt Q7RTX0+Q8TE23, R813K)?
4.56

Notebook entry, human TAS1R2-WT/TAS1R3-R813K (Homo sapiens, UniProt Q7RTX0+Q8TE23, R813K) assay: pEC50 of OC[C@H]1O[C@H](O[C@]2(CCl)O[C@H](CCl)[C@@H](O)[C@@H]2O)[C@H](O)[C@@H](O)[C@H]1Cl [Sucralose] = ?
3.92
